The entries below are paired with their reported viability.
Method Description: reducers of endogenous Her2 protein level, primary screen, SKBR3 breast tumor cells, AlphaScreen, ATP viability (AID 461);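 note: percent of carrier control wells set as 100% viability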
Test Settings: 18-24 h, measured here: SKBR3 viability, ATP luminescence, at 10 µM
Your answer is read as %, so omit the unit and give the number.

Below: 3 compounds and their reported viability.
CN(C)c1ccc(C=Nc2ccc(N(C)C)cc2)cc1 = 104
COC(=O)c1[nH]c2ccccc2c1NS(=O)(=O)c1ccc(OC)cc1OC = 88.5
COc1ccc(Cl)cc1NC(=O)COc1cccc(-n2cnnn2)c1 = 110

Reported viability, compound COc1ccc2ccccc2c1CN1CCCC(CO)C1 (stereo unspecified) : ____
92.5

Reported viability, compound O=S(=O)(c1ccc(OCC(O)CN2CCN(c3ccccc3)CC2)cc1)N1CCOCC1 (stereo unspecified) : ____
100

Reported viability, compound CC(=O)Nc1ccc(NC(=O)c2cc(C)nn2-c2ccccc2)cc1 : ____
84

Reported viability, compound COc1ccccc1CC(NC(C)=O)C(=O)NC1CCN(c2nnnn2-c2ccccc2)CC1 (stereo unspecified) : ____
97

Reported viability, compound COc1ccc(/C=N/n2cnnc2SCc2ccc(OC)cc2)cc1 : ____
83.5

Reported viability, compound CCN(CC)c1ccc2c(C)c(-c3ccc(N)cc3)c(=O)oc2c1 : ____
96.5

Reported viability, compound COc1cc(Cn2c(-c3nonc3N)nc3ccccc32)ccc1C : ____
104

Reported viability, compound CN(C)Cc1cn(CCC(=O)O)c2ccccc12 : ____
96

====

Method Description: growth suppression of yeast trafficking mutant, preliminary HTS, modulators of trafficking downstream of Golgi apparatus project, 1536-format plate, OD 615 nm (AID 637)
Test Settings: yeast transport mutant growth, absorbance 615 nm, 18 h; stronger effect = higher value
Observable: inhibition (%)
Your answer is read as %, so omit the unit and give the number.

Below: 5 compounds and their reported inhibition.
CCc1cc2c(NCCC(=O)O)nc(C)nc2s1 = 13.3
Cc1cc(S(=O)(=O)N2CCN(c3ccccc3C)CC2)ccc1F = 4.59
COc1cc(S(=O)(=O)N(C)C)ccc1F = 3.65
CCN(CC)C(=O)C1CCN(CC2CC=CCC2)CC1 (configuration not stated) = -2.91
CN(CCNC(=O)c1ccc(N2CCCC2=O)cc1)CCc1ccccc1 = 4.36

Reported inhibition, compound Cc1c(Cl)cccc1NC(=O)CCN1CCCCCC1 : ____
5.64

Reported inhibition, compound CN(C)CCCOC(=O)CCc1ccccc1 : ____
-7.09

====

The entries below are paired with their reported viability.
Method Description: SK-BR-3 cell growth inhibitors, pilot screen, 24 h, human (AID 572);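 note: compound exposure lasted between 18 and 24 h rather than exactly 24 h; 100% = carrier-treated control wells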
Test Settings: SK-BR-3 viability, CellTiter-Glo luminescence, at 10 µM, stronger effect = lower value
Your answer is read as %, so omit the unit and give the number.

Below: 5 compounds and their reported viability.
O=C(c1cccnc1)N1CCN(C(=O)c2ccccc2F)CC1 = 97
COc1cc(S(=O)(=O)NC2CCCCC2C)ccc1Cl (stereo unspecified) = 83
Cc1ccc2occ(CN3CCN(c4ccccc4)CC3)c(=O)c2c1 = 104
CC(=O)NC1CC2CCCC(C1)N2CC(=O)Nc1ccccc1 (stereo unspecified) = 95.5
OCc1nc2ccccc2n1CCCOc1ccccc1 = 80.5

Note: attention shifts to another entry.
Reported viability, compound O=C(N1CCN(c2ccccc2F)CC1)C12CC3CC(CC(C3)C1)C2 : ____
88.5

====

Method Description: reversal of MRP1-mediated doxorubicin resistance, pilot screen, H69AR cells, doxorubicin co-treatment (AID 601)
Test Settings: H69AR cells, CellTiter-Glo, 72 h; compound alone cytotoxicity; at 10 µM
Each record is given class 1 if its reported viability is strictly below 90%. Records at or above 90% are given class 0.

These solved cases illustrate the format of a correct answer.
NS(=O)(=O)c1ccc(CCNC(=O)c2cccnc2)cc1 = class 0
O=C(Nc1ccc(S(=O)(=O)N2CCCCCC2)cc1)c1ccco1 = class 0
Cc1nnc(NC(=O)C2CCCO2)s1 (stereo unspecified) = class 0

For CCOC(=O)CCC(=O)Nc1ccc(S(=O)(=O)N2CCCC2)cc1 , is the recorded viability below the cut-off of 90%?
class 0

For CC1(C)CC(=O)C=C(NCc2ccncc2)C1 , is the recorded viability below the cut-off of 90%?
class 0

For C/C(Cl)=C/Cn1c(SCc2ccc(Cl)cc2)nc2c1c(=O)[nH]c(=O)n2C , is the recorded viability below the cut-off of 90%?
class 1

For Cc1cc(C(=O)Nc2c(C)n(C)n(-c3ccccc3)c2=O)c(C)o1 , is the recorded viability below the cut-off of 90%?
class 0

For Cc1sc2nc(SCc3nc4ccccc4[nH]3)n(Cc3ccco3)c(=O)c2c1C , is the recorded viability below the cut-off of 90%?
class 1

====

Method Description: 384-well plate pilot, post-Golgi transport modulator project, inhibition of yeast transport mutant growth (AID 636)
Test Settings: absorbance 615 nm, about 18 h, stronger effect = higher value
Observable: inhibition (%)
Your answer is read as %, so omit the unit and give the number.

COc1ccc(OC)c(NC(=O)C2C3CC4OC(=O)C2C4C3)c1 (stereo unspecified) = -6.89

Reported inhibition, compound Cc1ccccc1Cn1nc(C)c(NC(=O)c2noc3c2CCCC3)c1C : ____
-3.12

Reported inhibition, compound Cc1ccc(C)c(C(=O)CC2(O)C(=O)Nc3ccccc32)c1 (stereo unspecified) : ____
-3.6

Reported inhibition, compound CCCC(=O)Nc1nnc(CC(=O)N2CCCC2)s1 : ____
-9.73

Reported inhibition, compound Cc1ccc2[nH]c(=O)c(CN(CCc3ccccc3)Cc3nnnn3CC3CCCO3)cc2c1 (stereo unspecified) : ____
1.45

Reported inhibition, compound O=C(CP(=O)(c1ccccc1)c1ccccc1)N1CCCCC1 : ____
-3.51

Reported inhibition, compound CCOCCCNC(=O)C1CCCN(S(=O)(=O)CC)C1 (stereo unspecified) : ____
-6.53

====

Method Description: reversal of MRP1-mediated doxorubicin resistance, pilot screen, H69AR cells, doxorubicin co-treatment (AID 601)
Test Settings: H69AR cells + 2 uM doxorubicin, CellTiter-Glo, 72 h; measured here: viability with 2 uM doxorubicin; at 10 µM; stronger effect = lower value
The entries below are paired with their reported viability.

Below: 5 compounds and their reported viability.
COc1cccc(S(=O)(=O)Nc2ccc(C(=O)N3CCN(C(=O)c4ccco4)CC3)cc2)c1 = 71.5%
O=C(CSc1nnc2c3cc(F)ccc3nc(-c3ccccc3)n12)N1CCOCC1 = 72.5%
Cc1ccc(OCCN2CCN(C(=O)CCC(=O)Nc3nnc(C)s3)CC2)cc1 = 91.8%
CC(=O)Nc1c(I)c(NC(C)=O)c(I)c(C(=O)O)c1I = 102%
CCOC(=O)c1cccc(NC(=O)CCn2nnc3ccccc32)c1 = 88.9%

Reported viability, compound CCN1C(=O)CC(N2CCC(Nc3ccc(F)cc3)CC2)C1=O (stereo not given) : ____
90.3%

Reported viability, compound COc1cccc(NC(=O)c2ccccc2NS(C)(=O)=O)c1 : ____
87.5%

Reported viability, compound CCOc1ccc(NS(=O)(=O)c2ccc(OCC(=O)N3CCCC3)cc2)cc1 : ____
85.2%

Reported viability, compound COc1ccc2c(c1)C1(Nc3ccccc3-c3nc4ccccc4n31)C(=O)N2 (stereo not given) : ____
85.9%

Reported viability, compound Cc1ccccc1NS(=O)(=O)c1cc(C(=O)N2CCCC2)ccc1C : ____
88.4%

====

Method Description: 384-well plate pilot, post-Golgi transport modulator project, inhibition of yeast transport mutant growth (AID 636)
Test Settings: absorbance 615 nm, about 18 h, stronger effect = higher value
Calls of active or inactive are those of the source. No stated cut-off is given here; in the data, active means inhibition above about 31%; inactive means the rest.
The entries below are paired with their reported inhibition.

Below: 5 molecules and their reported inhibition.
CCOC(=O)N1CCC(N2C(=O)c3ccccc3C2Nc2cccnc2)CC1 (stereo not given) = -2.05% (inactive)
Cc1ccc(-n2c(C)cc3c2CCCC3=O)cc1 = -9.07% (inactive)
C=CCN(CC=C)C(=O)Nc1cc(Cl)ccc1OC = -8.77% (inactive)
O=C(c1cccnc1)N1CCN(C(=O)c2ccccc2F)CC1 = -4% (inactive)
CCOC(=O)c1sc2nc(N3CCCC3)c3c(c2c1N)CC(C)(C)OC3 = -7.92% (inactive)

Note: attention shifts to another entry.
Reported inhibition, molecule O=C(CN1CCN(Cc2ccccc2)CC1)Nc1ccc(Cl)cn1 : ____
-8.08% (inactive)

====

Method Description: growth suppression of yeast trafficking mutant, preliminary HTS, modulators of trafficking downstream of Golgi apparatus project, 1536-format plate, OD 615 nm (AID 637)
Test Settings: yeast transport mutant growth, absorbance 615 nm, 18 h; stronger effect = higher value
The entries below are paired with their reported inhibition.
Your answer is read as %, so omit the unit and give the number.

Below: 5 molecules and their reported inhibition.
CCCn1cc(C(CC(=O)O)C(=O)O)c2ccccc21 (configuration not stated) = 5.24
COc1ccc(-n2cnnc2SCCC#N)cc1 = 3.71
COC(=O)c1ccc(CSc2nc3ccccc3s2)o1 = -3.09
COc1ccccc1N(CC(=O)NC1CCCC1)C(=O)CCC(=O)Nc1cc(C)on1 = 9.82
CCC(=O)Oc1ccc(/C(CC)=C(\CC)c2ccc(OC(=O)CC)cc2)cc1 = -4.67

Reported inhibition, molecule CN(C)C(=O)C12CCC(C)(c3nc4ccccc4nc31)C2(C)C (configuration not stated) : ____
-4.6

Reported inhibition, molecule Nc1nc(-c2ccc(Cl)cc2)cc(C(F)(F)F)n1 : ____
-1.11

Reported inhibition, molecule Cc1cc(C(=O)CSc2nnc(-c3ccccc3)n2C)c(C)n1C : ____
0.73

Reported inhibition, molecule Cn1c(C(=O)OC(C(=O)NC2CCCC2)c2cccnc2)cc2sccc21 (configuration not stated) : ____
2.91
